system: mouse TMEM16A mutant G558P (Mus musculus, UniProt Q8BHY3, G558P)
Construct: expressed in transfected cells; host or cells: HEK293T
Sequence (Q8BHY3 1-960 G558P): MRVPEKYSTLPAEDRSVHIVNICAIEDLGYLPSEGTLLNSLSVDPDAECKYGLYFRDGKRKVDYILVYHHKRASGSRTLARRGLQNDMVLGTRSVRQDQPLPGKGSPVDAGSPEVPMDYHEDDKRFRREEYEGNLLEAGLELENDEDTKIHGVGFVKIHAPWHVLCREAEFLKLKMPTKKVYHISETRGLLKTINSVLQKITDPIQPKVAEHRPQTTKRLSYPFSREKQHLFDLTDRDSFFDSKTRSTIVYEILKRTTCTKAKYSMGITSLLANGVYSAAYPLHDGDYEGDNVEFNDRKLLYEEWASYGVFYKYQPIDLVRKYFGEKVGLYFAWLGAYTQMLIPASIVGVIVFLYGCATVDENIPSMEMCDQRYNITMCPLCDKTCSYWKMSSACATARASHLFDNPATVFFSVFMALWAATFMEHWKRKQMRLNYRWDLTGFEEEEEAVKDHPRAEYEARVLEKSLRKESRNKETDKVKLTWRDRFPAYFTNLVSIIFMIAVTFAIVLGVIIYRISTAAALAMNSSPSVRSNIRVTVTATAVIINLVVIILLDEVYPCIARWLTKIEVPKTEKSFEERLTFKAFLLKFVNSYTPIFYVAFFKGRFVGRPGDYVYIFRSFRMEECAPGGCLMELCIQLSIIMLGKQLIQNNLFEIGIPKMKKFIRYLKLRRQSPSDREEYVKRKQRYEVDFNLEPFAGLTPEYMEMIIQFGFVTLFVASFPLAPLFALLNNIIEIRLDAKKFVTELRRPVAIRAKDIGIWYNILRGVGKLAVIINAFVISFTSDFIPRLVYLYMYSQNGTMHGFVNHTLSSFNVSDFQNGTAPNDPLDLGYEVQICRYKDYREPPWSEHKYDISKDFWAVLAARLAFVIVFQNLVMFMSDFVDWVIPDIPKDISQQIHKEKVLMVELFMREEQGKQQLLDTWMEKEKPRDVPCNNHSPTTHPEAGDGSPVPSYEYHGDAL
measurement protocol: Inside-out patch recording of 1PBC block, mutant G558P
Format: cell-based
test parameters: 100 mV; 15 µM Ca2+
measure name: pIC50
Expect pIC50 as a plain number equal to -log10 of the molar concentration.

Summary for this molecule, N#Cc1c(C(F)(F)F)cc(O)n2c1nc1ccccc12 [1PBC] : pIC50 is 5.52

====

system: mouse TMEM16A mutant P595A (Mus musculus, UniProt Q8BHY3, P595A)
Construct: expressed in transfected cells; host or cells: HEK293T
measurement protocol: Inside-out patch recording of 1PBC block, mutant P595A
Type: cell-based
test parameters: -40 mV; 2 µM Ca2+
measure name: IC50 (µM)
Numeric only. Scale: µM

Note to self: IC50 of N#Cc1c(C(F)(F)F)cc(O)n2c1nc1ccccc12 with mouse TMEM16A mutant P595A (Mus musculus, UniProt Q8BHY3, P595A) was 4.91

====

system: mouse TMEM16A mutant Y514A (Mus musculus, UniProt Q8BHY3, Y514A)
Construct: expressed in transfected cells; host or cells: HEK293T
Sequence (Q8BHY3 1-960 Y514A): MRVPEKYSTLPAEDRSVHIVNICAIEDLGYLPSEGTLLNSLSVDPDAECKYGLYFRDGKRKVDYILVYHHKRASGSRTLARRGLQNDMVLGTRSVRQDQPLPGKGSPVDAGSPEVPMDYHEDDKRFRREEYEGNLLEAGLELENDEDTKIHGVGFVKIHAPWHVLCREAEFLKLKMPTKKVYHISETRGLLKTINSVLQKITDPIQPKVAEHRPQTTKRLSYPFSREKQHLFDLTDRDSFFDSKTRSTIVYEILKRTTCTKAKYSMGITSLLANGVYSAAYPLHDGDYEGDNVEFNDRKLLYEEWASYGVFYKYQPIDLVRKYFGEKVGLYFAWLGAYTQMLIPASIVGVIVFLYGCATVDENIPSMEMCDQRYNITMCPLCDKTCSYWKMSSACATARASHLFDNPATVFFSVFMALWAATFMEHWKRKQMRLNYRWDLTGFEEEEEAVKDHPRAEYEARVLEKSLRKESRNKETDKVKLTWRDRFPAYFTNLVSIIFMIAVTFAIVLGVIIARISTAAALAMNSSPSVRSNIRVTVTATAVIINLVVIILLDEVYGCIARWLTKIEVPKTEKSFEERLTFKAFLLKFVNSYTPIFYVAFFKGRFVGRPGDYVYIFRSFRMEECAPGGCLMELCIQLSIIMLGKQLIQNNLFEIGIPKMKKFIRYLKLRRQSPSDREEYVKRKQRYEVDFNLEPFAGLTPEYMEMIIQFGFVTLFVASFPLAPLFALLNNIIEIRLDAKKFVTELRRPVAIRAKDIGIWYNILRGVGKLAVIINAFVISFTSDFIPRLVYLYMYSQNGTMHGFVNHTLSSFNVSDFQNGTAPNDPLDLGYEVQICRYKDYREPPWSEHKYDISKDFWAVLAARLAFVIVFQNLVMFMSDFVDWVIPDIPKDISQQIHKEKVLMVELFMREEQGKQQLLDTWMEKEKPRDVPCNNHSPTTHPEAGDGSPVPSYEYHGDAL
measurement protocol: Inside-out patch recording of 1PBC block, mutant Y514A
Assay type: cell-based
test parameters: -40 mV; 2 µM Ca2+
Protocol: HEK293T cells (ATCC CRL-1573) were maintained in Dulbecco’s modified Eagle’s medium (DMEM; Sigma-Aldrich) supplemented with 10 U ml^−1 penicillin, 0.1 mg ml^−1 streptomycin (Sigma-Aldrich), 2 mM L-glutamine (Sigma-Aldrich), and 10% FBS (Sigma-Aldrich) in a humidified atmosphere containing 5% CO2 at 37 °C. […]
measure name: IC50

Bench note, mouse TMEM16A mutant Y514A (Mus musculus, UniProt Q8BHY3, Y514A): N#Cc1c(C(F)(F)F)cc(O)n2c1nc1ccccc12 , IC50 reads 32.7 µM
